The measured values listed here are drawn from ChEMBL document CHEMBL1142675.

Target: Glycogen synthase kinase-3 (Homo sapiens, UniProt P49840+P49841)
Assay: Inhibition of Glycogen synthase kinase-3
Format: protein assay
property: Ki (nM)

The cases that follow already have their Ki on record.
chemicalSmiles: c1ccc(-c2nc(Nc3cc[nH]n3)c3ccccc3n2)cc1
unitsText: nM
Ki: 110
--
chemicalSmiles: Cc1cc(Nc2cc(-c3ccccc3)nc3ccccc23)[nH]n1
unitsText: nM
Ki: 2500
--
chemicalSmiles: Cc1n[nH]c(Nc2nc(-c3ccccc3)nc3ccccc23)n1
unitsText: nM
Ki: 23000

a: Cc1cc(Nc2nc(-c3ccccc3)nc3ccccc23)n[nH]1
b: c1ccc(-c2nc(Nc3nc[nH]n3)c3ccccc3n2)cc1
Between a and b , whose recorded Ki is greater? Give the label of your selection.
b
